- assay-notes: E. coli acrAB mutant growth effects, primary screen, E. coli filamentation inducers, strain DRC39, OD650, 48 h (AID 1179);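 note: screen aims at cell division blockers that make cells filament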
- condition-context: E. coli DRC39 delta-acrAB growth, higher = more signal, called active from +8 up or from −8 down
Entries and their z-score values follow.

{"molecule": "COCCCNC(=O)[C@@H]1c2ccccc2C(=O)N(C2CCCCC2)[C@H]1c1ccc(CO)cc1", "z-score": -0.122}
{"molecule": "CC(C)C(=C=CC[C@@H](O)c1ccc(OCCO)cc1)CCO", "z-score": 1.52}
{"molecule": "CN(C)C(=O)[C@]1(Cc2ccccc2)N=C(c2ccc(OCCCO)cc2)O[C@@H]1c1ccccc1", "z-score": -0.591}
{"molecule": "C=CC[C@]1(C(=O)N(C)C)COC(c2ccc(OCCCO)cc2)=N1", "z-score": -2.8}
{"molecule": "CN(C)CCCCNC(=O)[C@H]1C[C@H]2C(=O)N[C@@H](Cc3ccccc3)C(=O)N2[C@H]1c1cccc(OCCO)c1", "z-score": 0.862}
{"molecule": "C=C(CCCC)C(=O)CC[C@H](OC(=O)c1cccnc1)c1ccc(CO)o1", "z-score": -0.34}
{"molecule": "CCN(CC)c1ccc(N2CC=CC34O[C@@H]5C=CCOC(=O)[C@@H]5[C@H]3C(=O)N(CCO)[C@@H]4C2=O)cc1 (stereo partly drawn)", "z-score": 1.36}
{"molecule": "C[C@@H](OCc1ccccc1)C1NC(=O)[C@@]23C(=O)N[C@@H](Cc4ccccc4)C2[C@H](C)[C@@]2(C)O[C@H]2C3/C=C/C/C=C\\CNC(=O)[C@H](Cc2ccccc2)NC1=O (stereo partly drawn)", "z-score": 0.5}
